8OG:A repair function score values for the variants below.
B1: library; numbered along this chain (parent)
chain: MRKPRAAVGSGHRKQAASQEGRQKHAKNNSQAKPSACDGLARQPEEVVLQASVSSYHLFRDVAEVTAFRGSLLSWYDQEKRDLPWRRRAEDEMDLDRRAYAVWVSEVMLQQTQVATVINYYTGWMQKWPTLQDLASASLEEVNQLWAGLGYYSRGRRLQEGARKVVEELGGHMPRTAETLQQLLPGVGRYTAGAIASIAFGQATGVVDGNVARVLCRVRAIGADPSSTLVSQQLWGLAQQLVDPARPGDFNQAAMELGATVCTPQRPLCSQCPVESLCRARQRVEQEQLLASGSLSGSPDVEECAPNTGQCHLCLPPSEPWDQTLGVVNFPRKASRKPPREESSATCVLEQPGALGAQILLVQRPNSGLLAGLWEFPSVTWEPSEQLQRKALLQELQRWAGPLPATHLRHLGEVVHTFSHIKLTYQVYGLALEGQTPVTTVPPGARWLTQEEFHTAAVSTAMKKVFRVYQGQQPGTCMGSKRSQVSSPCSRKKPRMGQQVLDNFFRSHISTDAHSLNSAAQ

variants of: B1; assay: 8OG:A repair function score (normalized; synonymous = 0, nonsense = -1) (normalized log-likelihood score); higher = more repair activity (WT-like); settings: with 8OG:A DNA repair reporter (GFP) in HEK-293 MUTYH KO cells;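 further: cells sorted at 72 h after reporter transfection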
No unit in the answer, only the number.

Variant Code	Measured Attribute	Measured Value
A194K	8OG:A repair function score	-1.06
S52E	8OG:A repair function score	-0.00064
R60H	8OG:A repair function score	-0.196
S480D	8OG:A repair function score	0.0166
Y121A	8OG:A repair function score	-0.942

Tell me the measured 8OG:A repair function score of A334W , please. -0.28

What does the data say about its 8OG:A repair function score? Entry: G70L -0.0189

I'd like to know its 8OG:A repair function score. The variant in question is Q50L -0.0733

Name the reported 8OG:A repair function score value associated with the variant L403D -0.686

May I ask what 8OG:A repair function score has been recorded for P244R ? -0.145

Look up 8OG:A repair function score for this variant: L277F 0.00162

Entry under review: T228K . Reported 8OG:A repair function score? 0.0779

8OG:A repair function score for D243V ? -0.767

These data points were gathered from the supplement of paper PMC11908140.
